Would you kindly list Z.LYZ.NS (standard z score) for each of these compounds?
Tested on: ENR+CD organoids (ISC to Paneth cell differentiation)
Test: Primary screen: basal (non-stimulated) lysozyme secretion LYZ.NS, 2.5-D 384-well ENR+CD organoid differentiation
Type: cell-based, mouse
Conditions: primary screen, dose 0.08 uM
Where a name gives a salt, the structure may show the parent alone.
Number only, please.

Q. Field: Z.LYZ.NS (standard z score) (ENR+CD organoids (ISC to Paneth cell differentiation)). Entry: O=C(c1cncc(Br)c1)N1CCC(N2CCCC2)CC1
A. 0.578

Q. Field: Z.LYZ.NS (standard z score) (ENR+CD organoids (ISC to Paneth cell differentiation)). Entry: COc1ccc(C(=O)N2CCCC2=O)cc1
A. 0.774

Q. Field: Z.LYZ.NS (standard z score) (ENR+CD organoids (ISC to Paneth cell differentiation)). Entry: O=C(/C=C\n1cnc(-c2cc(C(F)(F)F)cc(C(F)(F)F)c2)n1)NNc1cnccn1
A. 1.745

Q. Field: Z.LYZ.NS (standard z score) (ENR+CD organoids (ISC to Paneth cell differentiation)). Entry: NC(=O)c1cccc(-c2cccc(OC(=O)NC3CCCCC3)c2)c1
A. 0.754

Q. Field: Z.LYZ.NS (standard z score) (ENR+CD organoids (ISC to Paneth cell differentiation)). Entry: COc1ccnc2[nH]cc(C(=O)C(=O)N3CCN(C(=O)c4ccccc4)C[C@H]3C)c12
A. 1.231

Q. Field: Z.LYZ.NS (standard z score) (ENR+CD organoids (ISC to Paneth cell differentiation)). Entry: O=c1ncccn1[C@@H]1O[C@H](CO)[C@@H](O)[C@H]1O
A. 0.223

Q. Field: Z.LYZ.NS (standard z score) (ENR+CD organoids (ISC to Paneth cell differentiation)). Entry: CC(=O)Nc1cccc2c1c(Sc1ccc(Cl)cc1)c(C)n2CC(=O)O
A. 0.081

Q. Field: Z.LYZ.NS (standard z score) (ENR+CD organoids (ISC to Paneth cell differentiation)). Entry: CCOC(=O)[C@H](CCc1ccccc1)N[C@@H](C)C(=O)N1C(=O)N(C)C[C@H]1C(=O)O [Imidapril HCl]
A. −0.049

Q. Field: Z.LYZ.NS (standard z score) (ENR+CD organoids (ISC to Paneth cell differentiation)). Entry: O=c1cc(-c2ccc(O)cc2)oc2cc(O)cc(O)c12
A. 1.147

Q. Field: Z.LYZ.NS (standard z score) (ENR+CD organoids (ISC to Paneth cell differentiation)). Entry: COc1cc(-n2c(=S)[nH]c3ccccc3c2=O)c(Cl)cc1Cl
A. 1.537

Q. Field: Z.LYZ.NS (standard z score) (ENR+CD organoids (ISC to Paneth cell differentiation)). Entry: COC(=O)CCSCc1ccc(-c2onc(C)c2NC(=O)OC(C)c2ccccc2Cl)cc1 (stereo not shown)
A. 0.044

Q. Field: Z.LYZ.NS (standard z score) (ENR+CD organoids (ISC to Paneth cell differentiation)). Entry: CCCCN1CCCCC1C(=O)Nc1c(C)cccc1C (stereo not shown) [Bupivacaine HCl]
A. 0.016

Q. Field: Z.LYZ.NS (standard z score) (ENR+CD organoids (ISC to Paneth cell differentiation)). Entry: CCN[C@H]1CN(CCCOC)S(=O)(=O)c2sc(S(N)(=O)=O)cc21 [Brinzolamide]
A. 1.159

Q. Field: Z.LYZ.NS (standard z score) (ENR+CD organoids (ISC to Paneth cell differentiation)). Entry: Nc1nc(N)c2nc(-c3ccccc3)c(N)nc2n1
A. 0.894

Q. Field: Z.LYZ.NS (standard z score) (ENR+CD organoids (ISC to Paneth cell differentiation)). Entry: CC(C)(C#N)c1cc(Cn2cncn2)cc(C(C)(C)C#N)c1
A. 0.305

Q. Field: Z.LYZ.NS (standard z score) (ENR+CD organoids (ISC to Paneth cell differentiation)). Entry: O=C(C[S+]([O-])Cc1ccco1)NC/C=C\COc1cc(CN2CCCCC2)ccn1 (stereo not shown)
A. 0.372

Q. Field: Z.LYZ.NS (standard z score) (ENR+CD organoids (ISC to Paneth cell differentiation)). Entry: CN(C)CCCCC(=O)Nc1ccc(NC(=S)NC(=O)c2ccc(C(C)(C)C)cc2)cc1
A. 1.050

Q. Field: Z.LYZ.NS (standard z score) (ENR+CD organoids (ISC to Paneth cell differentiation)). Entry: NC(=O)Nc1cc(-c2cccc(F)c2)sc1C(=O)N[C@H]1CCCNC1
A. 0.084

Q. Field: Z.LYZ.NS (standard z score) (ENR+CD organoids (ISC to Paneth cell differentiation)). Entry: C=C1C(=O)O[C@H]2[C@H]1CC/C(C)=C/CC[C@@]1(C)O[C@@H]21 [(−)-Parthenolide]
A. 0.506

Q. Field: Z.LYZ.NS (standard z score) (ENR+CD organoids (ISC to Paneth cell differentiation)). Entry: Cn1c(N2CCCCS2(=O)=O)nc(C(=O)NCc2ccc(F)cc2)c(O)c1=O
A. 0.933

Q. Field: Z.LYZ.NS (standard z score) (ENR+CD organoids (ISC to Paneth cell differentiation)). Entry: N#Cc1ccc(C(c2ccc(C#N)cc2)n2cncn2)cc1
A. 0.570

Q. Field: Z.LYZ.NS (standard z score) (ENR+CD organoids (ISC to Paneth cell differentiation)). Entry: Cc1cc(-c2ccc(CC(=O)Nc3ccc(-c4cccnc4)cc3)cc2)ccn1
A. −1.424

Q. Field: Z.LYZ.NS (standard z score) (ENR+CD organoids (ISC to Paneth cell differentiation)). Entry: CCN(CC)C(=O)c1ccc(C2=CC3(CCNCC3)Oc3cccc(O)c32)cc1 [ADL5859 HCl]
A. 0.458

Q. Field: Z.LYZ.NS (standard z score) (ENR+CD organoids (ISC to Paneth cell differentiation)). Entry: COc1c(O)cc2c(c1O)[C@@H]1O[C@H](CO)[C@@H](O)[C@H](O)[C@H]1OC2=O
A. 1.432

Q. Field: Z.LYZ.NS (standard z score) (ENR+CD organoids (ISC to Paneth cell differentiation)). Entry: C[C@@H]1CCN(C(=O)CC#N)C[C@@H]1N(C)c1ncnc2[nH]ccc12
A. −0.146

Q. Field: Z.LYZ.NS (standard z score) (ENR+CD organoids (ISC to Paneth cell differentiation)). Entry: CCCCc1nc(Cl)c(CO)n1Cc1ccc(-c2ccccc2-c2nnn[n-]2)cc1.[K+]
A. 0.449

Q. Field: Z.LYZ.NS (standard z score) (ENR+CD organoids (ISC to Paneth cell differentiation)). Entry: NC(=O)c1cccc(-c2cc(Nc3ccc(OC(F)(F)F)cc3)ncn2)c1
A. 1.386

Q. Field: Z.LYZ.NS (standard z score) (ENR+CD organoids (ISC to Paneth cell differentiation)). Entry: COc1ccc2cccc(CCNC(C)=O)c2c1
A. 0.227

Q. Field: Z.LYZ.NS (standard z score) (ENR+CD organoids (ISC to Paneth cell differentiation)). Entry: CC1(C)CCC(c2ccc(Cl)cc2)=C(CN2CCN(c3ccc(C(=O)NS(=O)(=O)c4ccc(N[C@H](CCN5CCOCC5)CSc5ccccc5)c(S(=O)(=O)C(F)(F)F)c4)cc3)CC2)C1
A. 0.104

Q. Field: Z.LYZ.NS (standard z score) (ENR+CD organoids (ISC to Paneth cell differentiation)). Entry: N#Cc1c(O)c2c(-c3ccc(-c4ccccc4O)cc3)csc2[nH]c1=O
A. 0.394

Q. Field: Z.LYZ.NS (standard z score) (ENR+CD organoids (ISC to Paneth cell differentiation)). Entry: C[C@H]1COC2(CCN(c3nc(=O)c4cc(C(F)(F)F)cc([N+](=O)[O-])c4s3)CC2)O1 (racemic) [BTZ043 Racemate]
A. 1.138

Q. Field: Z.LYZ.NS (standard z score) (ENR+CD organoids (ISC to Paneth cell differentiation)). Entry: O=C(Nc1ccccc1)c1cc([N+](=O)[O-])ccc1Cl
A. 0.305

Q. Field: Z.LYZ.NS (standard z score) (ENR+CD organoids (ISC to Paneth cell differentiation)). Entry: Nc1nc(OCc2cc(Br)cs2)c2[nH]cnc2n1
A. −0.437

Q. Field: Z.LYZ.NS (standard z score) (ENR+CD organoids (ISC to Paneth cell differentiation)). Entry: COc1cc(Nc2c(C#N)cnc3cc(OCCCN4CCN(C)CC4)c(OC)cc23)c(Cl)cc1Cl [Bosutinib (SKI-606), Bosutinib, reference compound]
A. 1.858
